Molecular target: Corticotropin-releasing factor receptor 2/Corticotropin-releasing factor-binding protein (Homo sapiens, UniProt P24387+Q13324)
Sequence (Q13324 whole entry): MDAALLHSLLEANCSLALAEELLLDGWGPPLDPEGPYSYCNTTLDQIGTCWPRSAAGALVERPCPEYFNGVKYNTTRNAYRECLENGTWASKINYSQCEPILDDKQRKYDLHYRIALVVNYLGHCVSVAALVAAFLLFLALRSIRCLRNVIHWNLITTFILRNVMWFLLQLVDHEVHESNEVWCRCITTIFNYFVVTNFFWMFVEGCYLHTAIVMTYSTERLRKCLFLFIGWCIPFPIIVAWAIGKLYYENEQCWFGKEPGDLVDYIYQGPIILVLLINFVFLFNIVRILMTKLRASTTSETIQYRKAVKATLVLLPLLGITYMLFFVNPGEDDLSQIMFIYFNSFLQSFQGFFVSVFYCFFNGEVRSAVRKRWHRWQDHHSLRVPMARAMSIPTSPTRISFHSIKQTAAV
Sequence (P24387 whole entry): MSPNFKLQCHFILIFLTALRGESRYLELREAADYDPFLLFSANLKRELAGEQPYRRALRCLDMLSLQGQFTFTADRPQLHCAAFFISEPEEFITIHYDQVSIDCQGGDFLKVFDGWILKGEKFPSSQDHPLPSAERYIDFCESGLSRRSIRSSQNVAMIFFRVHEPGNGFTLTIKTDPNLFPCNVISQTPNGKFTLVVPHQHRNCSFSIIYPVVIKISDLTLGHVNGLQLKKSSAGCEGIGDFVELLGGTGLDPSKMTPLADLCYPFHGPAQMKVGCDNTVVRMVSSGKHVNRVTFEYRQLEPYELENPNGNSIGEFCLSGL
Assay: Dose Response confirmation of uHTS hits for small molecule antagonists of the CRF-binding protein and CRF-R2 receptor complex.
Format: functional
Details: read-out: IC50_Mean
The source made the active and inactive calls. Cut-off read from the data, not from the text of the source: actives have a measured IC50 and inactives only a lower limit.
Response enum: 1 (active), 0 (inactive)

Before answering, review these 5 worked examples.
CCCCCn1c(=O)c(C(=O)Nc2c(C)n(C)n(-c3ccccc3)c2=O)c(O)c2ccccc21    0
COC(=O)C1=C(C)N=C(C)/C(=C(/O)OC)C1/C=C/c1ccccc1 (stereo unspecified)    0
Cc1ccc(C(=O)Nc2ccccc2C(=O)NC2CCCCC2)cc1S(=O)(=O)N1CCOCC1    0
Cc1cccc(N(C(=O)c2nsc(Cl)c2Cl)C(C(=O)NC2CCCC2)c2ccc(O)cc2)c1C (stereo unspecified)    1
Cc1cc(O)c(C2=Nc3ccccc3SC(c3ccc(Cl)cc3)C2)c(=O)o1 (stereo unspecified)    0

How was Cc1cccc(C(=O)N2c3ccccc3C(=O)OC2c2ccc3c(c2)OCO3)c1 (stereo unspecified) classified in this test?
1
